Origin of measurements: the supplement of paper PMC9112550

System: Escherichia coli TOP10;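 also: peptides expressed intracellularly from a pBAD plasmid library in pooled LB shake-flask culture, induced with 0.3% L-arabinose, DNA abundance read by NGS, three biological replicates, DESeq2 with apeglm shrinkage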
Assay: shrunken log2 fold change of peptide-encoding DNA abundance (4.5 h post-induction vs induction); higher = less antimicrobial activity (less host growth inhibition)
Conditions: time post-induction: 4.5 h; library: site-saturation at positions 5, 18, 19, 20
readout: shrunken log2 fold change

[[record]]
residues = "RRIRVRPPRLPRPRPRPIHVPRP"
valuereported = -0.155

[[record]]
residues = "RRIRIRPPRLPRPRPRPAMAPRP"
valuereported = -0.237

[[record]]
residues = "RRIRGRPPRLPRPRPRPTQVPRP"
valuereported = 0.353

[[record]]
residues = "RRIRPRPPRLPRPRPRPWGIPRP"
valuereported = -0.0138

[[record]]
residues = "RRIRGRPPRLPRPRPRPLPPPRP"
valuereported = 1.19

[[record]]
residues = "RRIRYRPPRLPRPRPRPTVHPRP"
valuereported = -1.3

[[record]]
residues = "RRIRARPPRLPRPRPRPARMPRP"
valuereported = 0.724

[[record]]
residues = "RRIRFRPPRLPRPRPRPQRGPRP"
valuereported = 0.353

[[record]]
residues = "RRIRARPPRLPRPRPRPYLCPRP"
valuereported = -0.291

[[record]]
residues = "RRIRTRPPRLPRPRPRPTHKPRP"
valuereported = -0.0156

[[record]]
residues = "RRIRWRPPRLPRPRPRPENAPRP"
valuereported = 0.275

[[record]]
residues = "RRIRWRPPRLPRPRPRPIESPRP"
valuereported = 0.467

[[record]]
residues = "RRIRSRPPRLPRPRPRPKLDPRP"
valuereported = -0.037

[[record]]
residues = "RRIRNRPPRLPRPRPRPRDHPRP"
valuereported = -0.219

[[record]]
residues = "RRIRRRPPRLPRPRPRPTLDPRP"
valuereported = 0.809

[[record]]
residues = "RRIRWRPPRLPRPRPRPEQSPRP"
valuereported = 0.678

[[record]]
residues = "RRIRNRPPRLPRPRPRPDSRPRP"
valuereported = -0.0141

[[record]]
residues = "RRIRVRPPRLPRPRPRPHGVPRP"
valuereported = 0.0673

[[record]]
residues = "RRIRARPPRLPRPRPRPFFYPRP"
valuereported = 0.105

[[record]]
residues = "RRIRYRPPRLPRPRPRPIFPPRP"
valuereported = -0.23

[[record]]
residues = "RRIRDRPPRLPRPRPRPRGMPRP"
valuereported = 0.0251

[[record]]
residues = "RRIRIRPPRLPRPRPRPSLKPRP"
valuereported = -0.154

[[record]]
residues = "RRIRDRPPRLPRPRPRPDIVPRP"
valuereported = 0.0868

[[record]]
residues = "RRIRMRPPRLPRPRPRPCFNPRP"
valuereported = -0.000544

[[record]]
residues = "RRIRLRPPRLPRPRPRPLYQPRP"
valuereported = -0.833

[[record]]
residues = "RRIRPRPPRLPRPRPRPDWSPRP"
valuereported = -0.195

[[record]]
residues = "RRIRNRPPRLPRPRPRPWPEPRP"
valuereported = -0.0309

[[record]]
residues = "RRIRHRPPRLPRPRPRPLFKPRP"
valuereported = -0.183

[[record]]
residues = "RRIRERPPRLPRPRPRPCSSPRP"
valuereported = 0.00543

[[record]]
residues = "RRIRIRPPRLPRPRPRPNMDPRP"
valuereported = -0.874

[[record]]
residues = "RRIRARPPRLPRPRPRPVIQPRP"
valuereported = 0.0904

[[record]]
residues = "RRIRCRPPRLPRPRPRPRIGPRP"
valuereported = 0.016

[[record]]
residues = "RRIRSRPPRLPRPRPRPYQYPRP"
valuereported = -1.11

[[record]]
residues = "RRIRCRPPRLPRPRPRPYPQPRP"
valuereported = -0.595

[[record]]
residues = "RRIRSRPPRLPRPRPRPVMGPRP"
valuereported = -0.0522

[[record]]
residues = "RRIRLRPPRLPRPRPRPVAVPRP"
valuereported = 0.0513

[[record]]
residues = "RRIRQRPPRLPRPRPRPFMHPRP"
valuereported = -0.0117

[[record]]
residues = "RRIRTRPPRLPRPRPRPVRWPRP"
valuereported = 0.774

[[record]]
residues = "RRIRVRPPRLPRPRPRPLTSPRP"
valuereported = 0.0775

[[record]]
residues = "RRIRVRPPRLPRPRPRPMIYPRP"
valuereported = -0.38

[[record]]
residues = "RRIRVRPPRLPRPRPRPQGSPRP"
valuereported = -0.205

[[record]]
residues = "RRIRVRPPRLPRPRPRPFNAPRP"
valuereported = -0.563

[[record]]
residues = "RRIRSRPPRLPRPRPRPEGLPRP"
valuereported = -0.0431

[[record]]
residues = "RRIRHRPPRLPRPRPRPKSMPRP"
valuereported = -0.503

[[record]]
residues = "RRIRGRPPRLPRPRPRPEHSPRP"
valuereported = 0.114

[[record]]
residues = "RRIRIRPPRLPRPRPRPGTLPRP"
valuereported = 0.0164

[[record]]
residues = "RRIRDRPPRLPRPRPRPAALPRP"
valuereported = 0.488

[[record]]
residues = "RRIRIRPPRLPRPRPRPHYSPRP"
valuereported = -1.15

[[record]]
residues = "RRIRTRPPRLPRPRPRPPAHPRP"
valuereported = 0.252

[[record]]
residues = "RRIRFRPPRLPRPRPRPRTFPRP"
valuereported = -0.179

[[record]]
residues = "RRIRPRPPRLPRPRPRPEWEPRP"
valuereported = 0.304

[[record]]
residues = "RRIRVRPPRLPRPRPRPANNPRP"
valuereported = -0.272

[[record]]
residues = "RRIRMRPPRLPRPRPRPQQGPRP"
valuereported = -0.121

[[record]]
residues = "RRIRYRPPRLPRPRPRPSRTPRP"
valuereported = -0.342

[[record]]
residues = "RRIRWRPPRLPRPRPRPYWNPRP"
valuereported = -0.645

[[record]]
residues = "RRIRPRPPRLPRPRPRPNYMPRP"
valuereported = -0.737

[[record]]
residues = "RRIRCRPPRLPRPRPRPTPFPRP"
valuereported = 0.207

[[record]]
residues = "RRIRFRPPRLPRPRPRPQQMPRP"
valuereported = -0.0245

[[record]]
residues = "RRIRPRPPRLPRPRPRPSTRPRP"
valuereported = -0.0318

[[record]]
residues = "RRIRLRPPRLPRPRPRPITGPRP"
valuereported = -0.0243

[[record]]
residues = "RRIRSRPPRLPRPRPRPPALPRP"
valuereported = 0.453

[[record]]
residues = "RRIRSRPPRLPRPRPRPNACPRP"
valuereported = 0.0406

[[record]]
residues = "RRIRIRPPRLPRPRPRPFDDPRP"
valuereported = 0.0183

